Before we begin, note that these IC50 values for Platelet-derived growth factor receptor alpha (Homo sapiens) originate from several publications.
measuredEndpoint: IC50 (nM)

Example cases with answers are listed next.
- compound: "Cc1n[nH]c2nccc(-c3ccc(NC(=O)NCC(C)C)cc3)c12"
  unitsSymbol: "nM"
  observedMeasurement: 1120
- compound: "Cc1n[nH]c2nccc(-c3ccc(NC(=O)NCCCCc4ccccc4)cc3)c12"
  unitsSymbol: "nM"
  observedMeasurement: 135

(P) CC(=O)Nc1ccc2c(c1)/C(=C/c1cc3c([nH]1)CCN(C(=O)N1CCOCC1)C3)C(=O)N2
(Q) CCNCc1ccc(N/C(=C2\C(=O)Nc3cc(C(=O)N(C)CC)ccc32)c2ccccc2)cc1
(R) COC(=O)c1ccc2c(c1)NC(=O)/C2=C(\Nc1ccc(CN(C)C(=O)N(C)C)cc1)c1ccccc1
Hey, quick one: sort these by IC50, low to high? The labels, placed in the requested order, form the answer.
R, P, Q
(R: 20 nM, P: 91 nM, Q: 1100 nM)
